Would you mind telling me the reported Max Absorbance of each entry?
Biological target: human IL-12 receptor (IL-12Rβ1 and IL-12Rβ2) on HEK-Blue IL-12 cells (human, UniProt P42701 24-662; Q99665 24-862)
Sequence (Q99665 24-862, chain 2 of 2, other chains not shown): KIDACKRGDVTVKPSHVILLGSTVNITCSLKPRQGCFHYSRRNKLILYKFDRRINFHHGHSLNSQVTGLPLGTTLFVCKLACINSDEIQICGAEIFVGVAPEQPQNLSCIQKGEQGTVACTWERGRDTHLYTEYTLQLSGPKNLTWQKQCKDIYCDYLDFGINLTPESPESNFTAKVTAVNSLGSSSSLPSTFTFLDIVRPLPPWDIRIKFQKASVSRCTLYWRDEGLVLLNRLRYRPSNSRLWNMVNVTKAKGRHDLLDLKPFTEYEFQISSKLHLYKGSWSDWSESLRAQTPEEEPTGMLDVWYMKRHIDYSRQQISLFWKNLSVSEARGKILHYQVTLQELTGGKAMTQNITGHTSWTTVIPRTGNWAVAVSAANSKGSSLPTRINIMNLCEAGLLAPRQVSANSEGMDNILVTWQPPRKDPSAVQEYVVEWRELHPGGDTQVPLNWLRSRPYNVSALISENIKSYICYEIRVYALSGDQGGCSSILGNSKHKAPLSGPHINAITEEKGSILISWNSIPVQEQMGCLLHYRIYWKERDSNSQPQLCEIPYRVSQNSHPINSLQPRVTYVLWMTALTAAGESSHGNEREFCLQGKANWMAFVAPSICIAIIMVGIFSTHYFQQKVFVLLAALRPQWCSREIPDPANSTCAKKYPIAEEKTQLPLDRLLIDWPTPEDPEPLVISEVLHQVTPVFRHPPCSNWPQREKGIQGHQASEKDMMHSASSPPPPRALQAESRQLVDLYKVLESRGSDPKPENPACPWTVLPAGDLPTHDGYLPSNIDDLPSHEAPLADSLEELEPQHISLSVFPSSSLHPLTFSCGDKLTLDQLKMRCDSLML
Assay: cell-based or functional assay

In: Record request: Max Absorbance value, item DGL606 (bispecific antibody, V domains shown, 238B1 x 219B2) V domain 1: QLQLVESGGGLVQPGGSLRLSCAASGFTFSSYGMSWVRQAPGKGLEWVSYISAGGGTTTYVDFVKGRFTISRDNAKNMLYLQMNSLKPEDTAVYYCVHAADGSRGQGTQVTVEP V domain 2: QVQLEESGGGLVQAGGSLRLSCAASGRTFSSYVVGWFRQAPGKEREFVGRISWSGARTYYADSVEGRFTISRDNAKNTVYLQMNSLKPEDTAVYYCAADLKWEVLLSEHYEYWGQGTQVTVEP
Out: 0.92

Here is the next item to consider.
In: Could you tell me which Max Absorbance is on file for DGL499 (bispecific antibody, V domains shown) V domain 1: EVQLVESGGGLVQAGGSLRLSCAASGLTFRNYAMAWFRQAPGKEREFVAGITWGGGLTHYVDSVKGRFTISRDNGKNTVYLQMNSLKSEDTAVYYCAGKTQGSTWYHLTPDGYDYWGQGTQVTVEP V domain 2: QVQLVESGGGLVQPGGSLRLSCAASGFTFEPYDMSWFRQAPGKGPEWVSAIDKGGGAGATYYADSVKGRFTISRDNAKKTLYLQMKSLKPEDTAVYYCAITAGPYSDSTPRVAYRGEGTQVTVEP ?
Out: 0.56
